The measured values listed here are drawn from patent US9765060B2.

Target: PI3K isoform δ (Homo sapiens (Human), UniProt O00329)
Sequence (O00329 whole entry, canonical isoform): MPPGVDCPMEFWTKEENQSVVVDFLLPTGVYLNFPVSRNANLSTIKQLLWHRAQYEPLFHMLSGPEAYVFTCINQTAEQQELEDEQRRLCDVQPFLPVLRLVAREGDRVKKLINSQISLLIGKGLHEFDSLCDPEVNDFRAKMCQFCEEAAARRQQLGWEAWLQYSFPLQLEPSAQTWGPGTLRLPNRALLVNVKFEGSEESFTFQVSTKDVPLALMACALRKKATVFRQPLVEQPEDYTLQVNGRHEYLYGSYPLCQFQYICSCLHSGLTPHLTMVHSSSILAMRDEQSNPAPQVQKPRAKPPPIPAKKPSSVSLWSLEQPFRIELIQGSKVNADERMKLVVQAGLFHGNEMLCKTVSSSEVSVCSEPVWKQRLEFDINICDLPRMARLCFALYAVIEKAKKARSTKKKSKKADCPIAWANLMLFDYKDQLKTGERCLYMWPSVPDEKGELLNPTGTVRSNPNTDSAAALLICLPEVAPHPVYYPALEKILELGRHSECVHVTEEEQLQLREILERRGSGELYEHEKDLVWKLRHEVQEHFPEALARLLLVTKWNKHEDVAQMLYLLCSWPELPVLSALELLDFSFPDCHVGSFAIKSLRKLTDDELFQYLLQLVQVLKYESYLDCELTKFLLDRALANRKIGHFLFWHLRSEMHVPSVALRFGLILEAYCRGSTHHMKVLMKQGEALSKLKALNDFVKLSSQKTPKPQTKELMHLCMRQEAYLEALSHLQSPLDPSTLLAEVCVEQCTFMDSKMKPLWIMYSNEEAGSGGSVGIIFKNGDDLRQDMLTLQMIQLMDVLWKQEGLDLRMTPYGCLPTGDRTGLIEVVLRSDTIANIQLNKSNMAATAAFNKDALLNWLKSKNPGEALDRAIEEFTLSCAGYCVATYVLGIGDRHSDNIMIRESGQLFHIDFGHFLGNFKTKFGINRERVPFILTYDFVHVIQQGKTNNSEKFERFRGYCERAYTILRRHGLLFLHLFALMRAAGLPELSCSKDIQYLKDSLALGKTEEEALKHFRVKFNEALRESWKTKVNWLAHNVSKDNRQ
Sequence (P27986 whole entry partner, canonical isoform): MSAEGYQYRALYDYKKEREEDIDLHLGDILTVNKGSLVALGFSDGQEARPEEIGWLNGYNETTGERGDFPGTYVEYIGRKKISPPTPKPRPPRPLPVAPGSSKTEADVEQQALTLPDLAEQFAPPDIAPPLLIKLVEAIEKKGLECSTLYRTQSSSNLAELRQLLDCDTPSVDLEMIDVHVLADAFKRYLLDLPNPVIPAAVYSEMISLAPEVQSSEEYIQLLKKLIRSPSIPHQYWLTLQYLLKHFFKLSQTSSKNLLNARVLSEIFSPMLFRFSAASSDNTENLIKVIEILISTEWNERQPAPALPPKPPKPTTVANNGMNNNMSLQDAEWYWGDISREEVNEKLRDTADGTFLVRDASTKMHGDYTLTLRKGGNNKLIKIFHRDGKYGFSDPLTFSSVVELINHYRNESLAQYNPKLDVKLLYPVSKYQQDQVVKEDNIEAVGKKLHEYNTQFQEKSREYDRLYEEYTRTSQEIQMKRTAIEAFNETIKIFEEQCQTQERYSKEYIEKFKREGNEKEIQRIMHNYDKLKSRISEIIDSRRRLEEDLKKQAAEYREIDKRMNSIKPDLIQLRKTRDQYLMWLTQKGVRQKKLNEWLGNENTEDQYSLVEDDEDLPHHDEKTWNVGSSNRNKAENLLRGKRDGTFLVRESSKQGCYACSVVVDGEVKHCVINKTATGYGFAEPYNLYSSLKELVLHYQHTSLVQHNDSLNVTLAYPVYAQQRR
Assay: TR-FRET assay of enzymatic activity of class I PI3K isoforms
Details: read-out: IC50 (nM) for PI3K isoform δ (Table 3); TR-FRET; 2× Km ATP, 2 μM PIP2; incubated for 30 minutes at 25° C.
property.measured: IC50 (nM)

• C[C@H](Nc1nc(N)nc(N)c1C#N)c1nc2cccc(OCC(=O)N3CCOCC3)c2c(=O)n1-c1ccccc1 [Compound 35] = 7

A: C[C@H](Nc1nc(N)nc(N)c1Cl)c1nc2cccc(CCC(N)=O)c2c(=O)n1-c1ccccc1 [Compound 43]
B: N#Cc1c(N)nc(N)nc1N1C[C@@H](NC(=O)C(F)(F)F)C[C@H]1c1nc2cccc(Cl)c2c(=O)n1-c1ccccc1 [Compound 108]
INPUT: Rank A against B by their IC50 values and give the higher one. Identify your pick by its label.
OUTPUT: A

1: C[C@H](Nc1nc(N)nc(N)c1C#N)c1nc2cccc(CCCN3CCC4(CC3)COC4)c2c(=O)n1-c1ccccc1 [Compound 64]
2: C[C@H](Nc1nc(N)nc(N)c1C#N)c1nc2cccc(C3=CCNCC3)c2c(=O)n1-c1ccccc1 [Compound 93]
3: Cc1ccc(Cl)c2c(=O)n(-c3cc(F)cc(F)c3)c([C@@H]3CCCN3c3nc(N)nc(N)c3C#N)nc12 [Compound 84]
INPUT: List from greatest to least IC50. State the ranking by listing the labels in the requested order.
OUTPUT: 1, 2, 3

1: N#Cc1c(N)nc(N)nc1N[C@H](c1nc2cccc(CCCN3CCCCC3)c2c(=O)n1-c1ccccc1)C1CC1 [Compound 57]
2: N#Cc1c(N)nc(N)nc1N[C@H](c1nc2c(F)ccc(CCCN3CCCC3)c2c(=O)n1-c1ccccc1)C1CC1 [Compound 58]
INPUT: Field: lower recorded IC50 (choose 1 or 2 ) // caller expects the label of the chosen entry
OUTPUT: 1

* * *

Molecular target: PI3K isoform δ (Homo sapiens (Human))
Test: TR-FRET assay of enzymatic activity of class I PI3K isoforms
Details: IC50 (nM) for PI3K isoform δ (Table 2), TR-FRET; 2× Km ATP, 2 μM PIP2; incubated for 30 minutes at 25° C.
property.measured: IC50 (nM)

• CS(=O)(=O)c1cccc2nc(C(Nc3nc(N)nc(N)c3C#N)C3CC3)n(-c3ccccc3F)c(=O)c12 (single isomer, unassigned) [Compound 17a-1] = 6
• CS(=O)(=O)c1cccc2nc(C(Nc3nc(N)nc(N)c3C#N)C3CC3)n(-c3ccccc3F)c(=O)c12 (single isomer, unassigned) [Compound 17a-2] = 8

* * *

Biological target: PI3K isoform δ (Homo sapiens (Human))
Assay: TR-FRET assay of enzymatic activity of class I PI3K isoforms
Settings: read-out: IC50 (nM) for PI3K isoform δ (Table 2); TR-FRET; 2× Km ATP, 2 μM PIP2; incubated for 30 minutes at 25° C.
property.measured: IC50 (nM)

* C[C@H](Nc1ncnc(N)c1C#N)c1nc2cccc(Cl)c2c(=O)n1-c1ccccc1 [Compound Y, reference compound] | 0.4

a: N#Cc1c(N)nc(N)nc1N[C@H](c1nc2cccc(F)c2c(=O)n1-c1cc(F)cc(F)c1)C1CC1 [Compound 14a]
b: N#Cc1c(N)nc(N)nc1N[C@H](c1nc2ccc(F)cc2c(=O)n1-c1cccc(F)c1)C1CC1 [Compound 16a]
c: N#Cc1c(N)nc(N)nc1N[C@H](c1nc2c(F)ccc(C#N)c2c(=O)n1-c1ccccc1)C1CC1
d: N#Cc1c(N)nc(N)nc1N[C@H](c1nc2cccc(C#N)c2c(=O)n1-c1cc(F)cc(C(F)F)c1)C1CC1
INPUT: Sequence the entries by IC50, beginning with the highest number. Give the labels in the order requested.
OUTPUT: d, a, c, b
(d: 49 nM, a: 19 nM, c: 10 nM, b: 4 nM)
